Data provenance is patent US9840501B2.

- MEASURED_ON: rat TAAR1 (Rattus norvegicus (Rat), UniProt Q923Y9)
- Sequence (Q923Y9 whole entry): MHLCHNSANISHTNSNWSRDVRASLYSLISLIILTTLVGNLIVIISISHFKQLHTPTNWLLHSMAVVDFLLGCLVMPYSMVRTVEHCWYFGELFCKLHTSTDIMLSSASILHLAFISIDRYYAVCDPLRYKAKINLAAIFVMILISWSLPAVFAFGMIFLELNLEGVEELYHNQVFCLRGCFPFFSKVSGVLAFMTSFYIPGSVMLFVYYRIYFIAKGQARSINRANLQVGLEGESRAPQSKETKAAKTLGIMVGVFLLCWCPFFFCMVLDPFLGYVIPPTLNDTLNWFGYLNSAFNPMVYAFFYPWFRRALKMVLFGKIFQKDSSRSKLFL
- METHOD_DESCRIPTION: Radioligand binding assay on rat TAAR1
- CONDITION_LABEL: rat TAAR1, membranes of stably transfected HEK-293 cells; second value of the pair; read-out: Ki (μM) mouse/rat: rat
The entries below are paired with their reported Ki.
REPORTED_METRIC: Ki (µM)

CCCCc1cc(C(=O)Nc2ccc([C@H]3CNCCO3)nc2)[nH]n1 0.0387
CC(C)Cc1n[nH]c(C(=O)Nc2ccc([C@H]3CNCCO3)nc2)c1F 0.0534
CCc1n[nH]c(C(=O)Nc2ccc([C@H]3CNCCO3)nc2)c1Br 0.0685
FC(F)(F)c1ccnc(Nc2ccc([C@H]3CNCCO3)nc2)c1 0.606
CCCc1n[nH]c(C(=O)Nc2ccc([C@@H]3CNCCO3)nc2)c1F 0.0568
